experiment: soluble on expression in E. coli; label from the status in PepcDB or PDB records
MEASURED_ATTRIBUTE: soluble on expression in E. coli

Illustrative cases are given below, each with its answer.
INSERT INTO results (residue_sequence, endpoint_value) VALUES
  ('PQPSRPRKGSLGFGPRKRSTSETPRFNSWPSDDGQPGVQGFAGYKAGMTHVVLVNDEPNSPREGMEETVPVTVIETPPMRAVALRAYEDTPYGQRPLTEVWTDEFHSELDRTLDVPEDHDPDAAEEQIRDAHEAGDLGDLRLITHTVPDAVPSVPKKKPDVMETRVGGGSVSDRLDHALDIVEDGGEHAMNDIFRAGEYADVAGVTKGKGTQGPVKRWGVQKRKGKHARQGWRRRIGNLGPWNPSRVRSTVPQQGQTGYHQRTELNKRLIDIGEGDEPTVDGGFVNYGEVDGPYTLVKGSVPGPDKRLVRFRPAVRPNDQPRLDPEVRYVSNESNQG', 'soluble'),
  ('SLGPPPGPPRVSPDPRAELDSTVLLTRSLLADTRQLAAQLRDKFPADGDHNLDSLPTLAMSAGALGALQLPGVLTRLRADLLSYLRHVQWLRRAGGSSLKTLEPELGTLQARLDRLLRRLQLLMSRLALPQPPPDPPAPPLAPPSSAWGGIRAAHAILGGLHLTLDWAVRGLLLLKTR', 'soluble'),
  ('MEPKLSKDTIIAAAFSLLEKSPTLEQLSMRKVAKQLGVQAPAIYWYFKNKQALLQSMAEAIEEHFQEPALCGEWYSDLLAFMENYYDLYQQFPCAVAIEIQTVPAYPQRLRHLNQMMGILREAGFSPEMTHLAVTSLQHLLFGMIMDATEEKQLVSQVLNGDDYLKEQVLHMKQYVSDNELTYMEESIQFRHSIHQKSAFIQAVKTYLDGLQADNTSSSK', 'soluble'),
  ('MGSDKIHHHHHHMPVMFQQMQYFIAIVNNHSFTQAAVDCHISQSAISQQMKELESQLGVKLLNRKGRSFEVTEAGQYFYIHSQDILADVDQLIKKTIKIEKNDEVELRVGYLRSFGTAEFLQTVSKFTQEFPKVKIKISSGTHEELYELLQTGKIDLNFSDQRRALSNEYQNEFLTASEFMVAVNNSLPVETQKIDVADLVDIPCILIIDGHQQVSEEEYYRNVLGVKSEFVIAKSYDEAQMLIASNQGYLIINQRMRTQLDKDIVKMISLVKGDRKLIQNYYAYWQANNSGYYIETFAELLKQTFA', 'not soluble'),
  ('DTFIGWEPEVTHKKYFAMLDTISQVQGVPEPIIEAVAPLFFANNADQVHPELVASFKQSLESLTGERAVEVARIGRMVFGRRDVIEDAEKFALPTLIAVGREDKPRPVFESYLMHDCITGSELVEIPEAGHISSLEQPEFVNQMLLSFLNKVHA', 'not soluble');

Provide soluble on expression in E. coli for all items below, preserving their order.
1. MTKQAEETQKPIIFAPETYQYDKFTLNEKQLTDDPIDLFTKWFNEAKEDPRETLPEAITFSSAELPSGRVSSRILLFKELDHRGFTIYSNWGTSRKAHDIATNPNAAIVFFWKDLQRQVRVEGITEHVNRETSERYFKTRPRGSKIGAWASRQSDVIKNREELDELTQKNTERFKDAEDIPCPDYWGGLRIVPLEIEFWQGRPSRLHDRFVYRRKTENDPWKVVRLAP
2. MSLSENIAAYVGLDVHKETLAVAIAAPERLGEVRYYGTINNEAQAVRRLFQKLQGLYGNILSCYEAGPCGFGLYHQLTAMNIKCQVIAPSRIPKSPTDRIKNDHRDAISLARLLRAGELTPVWIPDLTHEAMRDLIRARAAAKRDSRVARQRILSMLLRTDKHYAGKHWTGKHRTWLANQSFSQPSQQIAFQHYCQSLEQIEDRILQLDQEISRLLPEWSLCNLVCQLQALKGVGQLIAITLVAELGDFSRFSNPKQLMAFLGLVPGEYSSGNSIRPRGITKVGNSELRRLLYEAAWSYRTPAKVGAWLIYYRPDSVTQYSKDIAWKAQQRLCSRYRSLTAKGKKSQVAITAVARELTGFMWDIALAAQSSFSQQKQNEGHHHHHH
3. GMTKLPATSDIYISFFMFTTNLQPDNLDYRRIVVAHIKKLQRFGYSGFEFPIAPGLPENYAQDLENYTNLRHYLDSEGLENVKISTNVGATRTFDPSSNYPEQRQEALEYLKSRVDITAALGGEIMMGPIVIPYGVFPTTDFNEPIWSDELQEHLKVRYANAQPILDKLGEYAEIKKVKLAIEPITHWETPGPNKLSQLIEFLKGVKSKQVGVVIDSAHEILDGEGPEIFKTQVEYLAQQGRLHYVQVSPPDRGALHTSWLPWKSFLTPIVKVYDGPIAVEIFNAIPAFTNSLRLTRRKFWIPDEDPPNQYPNAYDIADEAIKVTRKELKKIGSK
4. MGSDKIHHHHHHMKVSSKPSLTWEILTSRADRPRQEVFPFNTGRCEYFYSARYALAAALDALKLSPQQSILMPSYNCWVEVEPAVRSGAKIDWYRVKTDFSIDEDDLLARIRPETAAIFVIHYLGFPQRLENIHRICTERGIVLIEDCAHALLSNDGDVPLGLTGDMAIFSIRKTVPIPDGGCLLINNPAFSVNRPRRVRPNLFATYFVVSEMLARGSTTEPKRVNQMAYSCNFAFARLARMGLRGIHKIFQDHGDYLVYPSGNHFNEQVKHWMMSDVSSAILRGTEFQRIKERRRANFLHLLDKLIMNDRITLPILSLPEGVSPLFFPVIVQDRDRVYRQLKDQGLSGHDWWGDFHPAVPWDKYPDAVYLKTNVFGFPVHQDLSRESLGIMLAEFSQCL
5. GHMSAHVQQDKYETNVSYKKLNQLAPYFKGFDGSFVLYNEREQAYSIYNEPESKQRYSPNSTYKIYLALMAFDQNLLSLNHTEQQWDKHQYPFKEWNQDQNLNSSMKYSVNWYYENLNKHLRQDEVKSYLDLIEYGNEEISGNENYWNESSLKISAIEQVNLLKNMKQHNMHFDNKAIEKVENSMTLKQKDTYKYVGKTGTGIVNHKEANGWFVGYVETKDNTYYFATHLKGEDNANGEKAQQISERILKEMELI

1: soluble; 2: soluble; 3: soluble; 4: not soluble; 5: soluble

====

assay: soluble on expression in E. coli; label from the status in PepcDB or PDB records
MEASURED_ATTRIBUTE: soluble on expression in E. coli

INSERT INTO assay_data (residue_sequence, measured_attribute, endpoint_value) VALUES
  ('MKPKDFCTAENWAENLSALGYLAGWRFVRMLPLPIARRVFDLGADLASKSGKGMGQLRANLARVVGAENVTQALVKQATRSYARYWLEAFRLPAIARDPELLARLRKGTVGLDLLDESLAAGKGVVLTLPHSGNWDMAGAFLISHHGQFTTVAERVKPERLFEAFVEFRESLGFEVLPLTGGERPPFEKLKERLTSGGIVCLLGERDLRHSGVETTFFGEKTSMPAGPAQLAIETGAALHVVHPWFDDDGWGLSVSDAVTVDNLSDTVQRIAHLFMANITAHPADWHMLQPLWFGDLDPERLKRSREQTNVHKPVALQEDN', 'soluble on expression in E. coli', 'not soluble'),
  ('MGSDKIHHHHHHMIHVAHHYEMRHPTADIQETSMSSAQEERLRFIDFRLMFLGDVSRQDLTDRFGISEPAATRDLTQYRERCAANMEYSHVQRAYLRNYNFAPLYDHESTEALAMIAHGHLALPRRERKPLLRCDLPIQLDSPDSMVVSTITRAINHQHVISIDYRSHSSGETRRQIVPFALVDNGLRWHIRAYDRRRLRFSDFVISRISNPTIEESVVLTHERWEHDIQWNRIVELELVPHPKRPHPETTLFEYGMVNGISRLRVRAAVAGYFLRRWNVDCSPDHCLEGNEYQLWLKNRETLYGVETLEIAPGYL', 'soluble on expression in E. coli', 'not soluble');

====

assay: soluble on expression in E. coli; label from the status in PepcDB or PDB records
MEASURED_ATTRIBUTE: soluble on expression in E. coli

Illustrative cases are given below, each with its answer.
INSERT INTO assay_data (residue_sequence, endpoint_value) VALUES
  ('HHHHHHTNEAYLAHERRELEAKRNQLRDEVDRTKTHMQDEAANDPNWFDITAQLWEFSQELRNRDREEKLIKKIEQTLKKVENED', 'soluble'),
  ('MSLAIRVVCISDTHDLKVDIPRGDILIHAGDLTDGGTVSDIQKQLDWLKEQPHPIKVVVAGNHDSWFDQKSRPEEDARSGAKPDMDGLIYLESGLTVQKVKGRTVNIFGVPDIPEIGPKEFAFQYATDNHPWLSKVPPQTDILVTHCPPKHHLDLGLGDSNLLREVWRVKPRLHVFGHVHCAYGKESVFFDNFQQTYERIMSRPRRGPILDFIPNEAWLDYLRFLAQGIHAVAWKWIMSGPGSNNGSLMVNAAQMKGNSGKVKSRAVVVEIEGHHHHHH', 'soluble'),
  ('MDLIHEKVFVNRYHYDVRNHEWEKENGVPKTNVEVTFQLHHKDKEANNTSVVAVLQFMIVRDEFVISGIVSQMNHIQNRIVNNPKDFSQEEAEYLAAPLLDTLQRLTYEVTEIALDRPGINLEF', 'not soluble'),
  ('MADSLDRLYQAVLAARDLDPATSRTARLFQRGSGKMAKKLAEEAIEVVIDAVNGNREAVIRESADLLYNLTVLWASAGVRPEDVWAEMRRRENLLGIAEKLPKSRIGKPAAPHATRRPVIPQEARAVRKHR', 'not soluble');

Query sequence follows.
Give soluble on expression in E. coli for the following sequence: GSHMNKKSFQCSNCSVTETIRWRNIRSKEGIQCNACFIYQRKYNKTRPVTAVNKYQKRKLKVQETNGVDSF soluble
